measurement notes: Cytotoxicity against human HepG2 cells assessed as depletion of ATP content incubated for 48 to 72 hrs by CellTiter-Glo luminescent assay
Format: toxicity, cell-based
property name: IC50 (µM)
Please state the figure in µM; there is no need to write the unit.

q: IC50 for O=C(N[C@@H](Cc1coc2ccccc12)B(O)O)[C@@H]1C[C@H]2CC[C@@H]1O2 ?
a: 48

* * *

Overview of recorded log10 of IC50 for various compounds
tested system: Proteasome subunit beta type-8 (Homo sapiens, UniProt P28062)
Sequence (P28062 whole entry): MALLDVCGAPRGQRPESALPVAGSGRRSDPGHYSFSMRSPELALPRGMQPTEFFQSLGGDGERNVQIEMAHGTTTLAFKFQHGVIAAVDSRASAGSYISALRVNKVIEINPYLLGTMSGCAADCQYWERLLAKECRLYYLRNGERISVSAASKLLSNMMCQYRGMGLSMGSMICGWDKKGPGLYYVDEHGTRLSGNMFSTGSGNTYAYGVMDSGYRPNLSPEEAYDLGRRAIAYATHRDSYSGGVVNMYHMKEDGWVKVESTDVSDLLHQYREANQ
measurement notes: Inhibition of 20S immunoproteasome beta-5i subunit in human PBMC using Ac-ANW-luciferin substrate preincubated for 2 hrs followed by substrate addition and measured after 30 mins by luminometric analysis
Format: cell-based
The figures below represent log10 of IC50, where IC50 is stated in µM.

Some solved cases for reference:
O=C(Cn1cccn1)N[C@@H](Cc1coc2ccccc12)B(O)O = -1.51
Cc1ccc(C[C@H](NC(=O)Cc2ccccc2)B(O)O)c(C)c1 = -0.05
O=C(Cc1cnccn1)N[C@@H](Cc1coc2ccccc12)B(O)O = -1.74
COc1cccc2c(C[C@H](NC(=O)Cc3ccccc3)B(O)O)coc12 = -2.05
O=C(Cc1ccccc1)N[C@@H](Cc1ccccc1)B(O)O = -0.19
Cc1ccc(C[C@@H](NC(=O)Cc2ccccc2)B(O)O)cc1C = 0.15

Let us move to another entry and its log10 of IC50.
q: log10 of IC50 for O=C(Cc1ccccc1)N[C@@H](Cc1ccc(Cl)cc1)B(O)O ?
a: -0.01

* * *

tested system: Proteasome subunit beta type-10 (Homo sapiens)
Sequence (P40306 whole entry): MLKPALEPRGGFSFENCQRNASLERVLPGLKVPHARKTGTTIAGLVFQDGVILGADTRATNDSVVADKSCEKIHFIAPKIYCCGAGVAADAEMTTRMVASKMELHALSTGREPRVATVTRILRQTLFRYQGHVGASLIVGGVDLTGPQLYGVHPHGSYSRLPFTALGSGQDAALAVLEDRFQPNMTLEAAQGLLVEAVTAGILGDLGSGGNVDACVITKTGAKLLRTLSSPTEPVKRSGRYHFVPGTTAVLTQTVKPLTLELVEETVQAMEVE
measurement notes: Inhibition of human 20S immunoproteasome beta-2i subunit using Ac-RLR-AMC as substrate preincubated for 2 hrs followed by substrate addition and measured after 1 hr by fluorescence intensity assay
property name: pIC50
# pIC50 is unitless: minus log10 of the molar concentration; print number only

CCc1cccc(C[C@H](NC(=O)[C@H](Cc2ccccc2)NC(=O)c2cnccn2)B(O)O)c1 = 5.40

Let us move to another entry and its pIC50.
q: State its pIC50 on Proteasome subunit beta type-10 (Homo sapiens): CC(C)C[C@H](NC(=O)CNC(=O)c1cc(Cl)ccc1Cl)B(O)O
a: 5.31

* * *

Species: Homo sapiens
measurement notes: Selectivity ratio of IC50 for inhibition of human 20S proteasome beta5 subunit to IC50 for inhibition of human 20S immunoproteasome beta-5i subunit
Criterion: Ratio IC50 strictly under 200. Met: 1 (yes). Not met: 0 (no).

These recorded examples may help you get a feel for the data.
Cc1c(Cl)ccc2c(C[C@H](NC(=O)Cc3ccccc3)B(O)O)coc12 = 0 (no)
Cc1ccc(C[C@H](NC(=O)Cc2ccccc2)B(O)O)cc1C = 1 (yes)
O=C(Cc1ccncc1)N[C@@H](Cc1coc2ccccc12)B(O)O = 0 (no)
CC(C)C[C@H](NC(=O)Cc1ccccc1)B(O)O = 1 (yes)
O=C(Cc1ccccc1)N[C@@H](Cc1ccc(Cl)cc1)B(O)O = 1 (yes)
COCC(=O)N[C@@H](Cc1coc2ccccc12)B(O)O = 1 (yes)

Consider now this further molecule.
q: Below 200 on Ratio IC50? Entry O=C(Cc1ccccc1)N[C@@H](Cc1coc2c(F)cccc12)B(O)O
a: 1 (yes)
